# MIC per entry
- Tested on: Pseudomonas aeruginosa
- experiment-summary: Antibacterial activity against beta-lactams resistant Pseudomonas aeruginosa isolate expressing AmpC by macrodilution technique
- Assay type: functional

compound	MIC [µg/mL]
CC1(C)S[C@@H]2[C@H](NC(=O)[C@H](C(=O)O)c3ccsc3)C(=O)N2[C@H]1C(=O)O [TICARCILLIN]	64
C[C@@H](O)[C@H]1C(=O)N2C(C(=O)O)=C(SCCNC=N)C[C@H]12 [IMIPENEM ANHYDROUS]	8
CO/N=C(\C(=O)N[C@@H]1C(=O)N2C(C(=O)[O-])=C(C[N+]3(C)CCCC3)CS[C@H]12)c1csc(N)n1	8
CC(C)(O/N=C(\C(=O)N[C@@H]1C(=O)N2C(C(=O)[O-])=C(C[n+]3ccccc3)CS[C@H]12)c1csc(N)n1)C(=O)O [CEFTAZIDIME]	16
